Origin of values: PubChem BioAssay (NCI)

System: CAKI-1 renal
Assay: NCI tumour cell line growth inhibition, 48 h; in the data active = GI50 below about 0.43 µM; inactive = the rest
Classes used: 1 (yes) = active, 0 (no) = inactive

molecule: O=C(Nc1ccc(F)cc1)c1cc(S(=O)(=O)Nc2nc3ccccc3o2)c(SCc2ccccc2)cc1Cl
target: CAKI-1 renal
group label: 0 (no)
--
molecule: O=C(CSC1CCc2ccccc21)N/N=C/c1ccccc1O (stereo not given)
target: CAKI-1 renal
group label: 0 (no)
--
molecule: O=C1NC(=O)C(c2cccc([N+](=O)[O-])c2)=C1Nc1cc(Cl)c(O)c(Cl)c1
target: CAKI-1 renal
group label: 0 (no)
--
molecule: CC1=C(C(=O)Nc2ccc(Cl)c(Cl)c2)C(c2cccc(Oc3ccccc3)c2)NC(=O)N1 (stereo not given)
target: CAKI-1 renal
group label: 0 (no)
--
molecule: Cn1cc(C2=C(c3cccc(Br)c3)C(=O)NC2=O)c2ccccc21
target: CAKI-1 renal
group label: 0 (no)
--
molecule: N=C(N)c1ccc2nc(-c3cc(CC(=O)N[C@@H](CC(=O)O)C(=O)O)cc(-c4cc(S(N)(=O)=O)ccc4O)c3O)[nH]c2c1
target: CAKI-1 renal
group label: 0 (no)
--
molecule: CC(=O)[O][Ga]([Br])[O]C(C)=O
target: CAKI-1 renal
group label: 0 (no)
--
molecule: COc1cc2c3c(n(CCCOC(=O)C(F)(F)F)c(=O)c2cc1OC)-c1cc2c(cc1C3=O)OCO2
target: CAKI-1 renal
group label: 1 (yes)
--
molecule: O[C@H](c1cc(C(F)(F)F)nc2c(C(F)(F)F)cccc12)[C@@H]1CCCCN1
target: CAKI-1 renal
group label: 0 (no)
--
molecule: O=C1NC(=NCCc2cccc(Cl)c2)S/C1=C\c1ccc2ncccc2c1
target: CAKI-1 renal
group label: 0 (no)
--
molecule: COc1ccc(-c2ccc(-c3ccc(C(=N)N)s3)s2)cc1
target: CAKI-1 renal
group label: 1 (yes)
--
molecule: C=C1C(=O)O[C@H]2[C@H]1CC/C(COC(=O)/C=C\C(=O)NCc1ccc(Cn3c(=O)sn(CCCC)c3=O)cc1)=C\CC[C@@]1(C)O[C@@H]21
target: CAKI-1 renal
group label: 1 (yes)
--
molecule: O=C(Nc1ccc(-n2ccc3c(NC(=O)c4ccccc4)nccc32)cc1)Nc1ccc(Cl)c(Cl)c1
target: CAKI-1 renal
group label: 0 (no)
--
molecule: COc1cc2c(c(OC)c1OC)-c1ncc3cc4c(cc3c1C2)OCO4
target: CAKI-1 renal
group label: 0 (no)
--
molecule: CCN(Cc1ccccc1C)c1ccc(CO)c(Cl)c1
target: CAKI-1 renal
group label: 0 (no)

====

Some molecules, each annotated with its measured TGI.
Test system: SNB-19 CNS
Test: NCI tumour cell line growth inhibition, 48 h
endpoint label: TGI (µM)

molecule: OCc1ccn2c1[C@@H](O)CC2
endpoint label: TGI
unit label: µM
relational operator: >
observed result: 100

molecule: Cc1cc(C2CC(O)C(CO)O2)c(F)cc1F (stereo unspecified)
endpoint label: TGI
unit label: µM
relational operator: >
observed result: 100

molecule: COC1(OC)CC2C(=O)N(Cc3ccccc3)C1C=C2S(=O)(=O)c1ccccc1 (stereo unspecified)
endpoint label: TGI
unit label: µM
relational operator: =
observed result: 54.7

molecule: CN1C(=O)c2ccccc2OC12C=Cc1ccc(O)cc1O2 (stereo unspecified)
endpoint label: TGI
unit label: µM
relational operator: >
observed result: 100

molecule: CC(=O)O/C(=C1\C[C@H]2[C@@H]3CC=C4C[C@@H](OC(C)=O)CC[C@]4(C)[C@H]3CC[C@]2(C)C1=O)C(F)(F)F
endpoint label: TGI
unit label: µM
relational operator: =
observed result: 40.6

molecule: NC(=O)OCCn1cc(-c2nc(-c3c[nH]c4ncccc34)cs2)c2ccccc21
endpoint label: TGI
unit label: µM
relational operator: =
observed result: 43.8

====

Tested on: UO-31 renal
Test: NCI tumour cell line growth inhibition, 48 h
endpoint label: TGI (µM)

compound: C=C1C(=O)O[C@H]2[C@H]1CC/C(COC(=O)/C=C\C(=O)NCc1ccc(Cn3c(=O)sn(CCCC)c3=O)cc1)=C\CC[C@@]1(C)O[C@@H]21
target: UO-31 renal
endpoint label: TGI
relational operator: =
observed result: 1.61
//
compound: CC(C)N(C(=O)C12C3C4C1(I)C1C2C3(I)C41C(=O)N(C(C)C)C(C)C)C(C)C (centres undefined)
target: UO-31 renal
endpoint label: TGI
relational operator: >
observed result: 100
//
compound: Cc1ccc(-c2n[nH]c(=O)n2/N=C\c2ccc([N+](=O)[O-])cc2)cc1
target: UO-31 renal
endpoint label: TGI
relational operator: >
observed result: 100
//
compound: CNC(=S)N=Nc1c(O)n(CN2CCOCC2)c2ccc([N+](=O)[O-])cc12
target: UO-31 renal
endpoint label: TGI
relational operator: =
observed result: 14.2
//
compound: COc1ccc2c(c1)nc1n2C(c2c(Cl)cccc2Cl)SC1 (centres undefined)
target: UO-31 renal
endpoint label: TGI
relational operator: >
observed result: 100
//
compound: CCn1c(=O)c2c(=O)c3c4c(oc3oc2c2ccccc21)C(=O)c1ccccc1C4=O
target: UO-31 renal
endpoint label: TGI
relational operator: >
observed result: 100
//
compound: O=C(Nc1ccc(F)cc1)c1cc(S(=O)(=O)Nc2nc3ccccc3o2)c(SCc2ccccc2)cc1Cl
target: UO-31 renal
endpoint label: TGI
relational operator: =
observed result: 29.2
//
compound: O=S(=O)(Nc1ccc(F)cc1F)c1ccc(-c2cnc(C3CC3)o2)cc1
target: UO-31 renal
endpoint label: TGI
relational operator: =
observed result: 34.2
//
compound: O=C1NC(=O)C(c2cccc([N+](=O)[O-])c2)=C1Nc1cc(Cl)c(O)c(Cl)c1
target: UO-31 renal
endpoint label: TGI
relational operator: >
observed result: 25

====

The entries below are paired with their reported TGI.
Tested on: A549 NSCLC
Assay: NCI tumour cell line growth inhibition, 48 h

compound: Cc1cc(C)c2c(c1)C/C(=C\c1ccccc1C(=O)O)C2=O
target: A549 NSCLC
TGI: > 100 µM
--
compound: COc1ccc(-c2coc3c4c(ccc3c2=O)OCO4)cc1OC
target: A549 NSCLC
TGI: > 100 µM
--
compound: Cc1cn(C2CC(O)C(CO[Si](C)(C)C(C)(C)C)OC2OC(C)C)c(=O)[nH]c1=O (stereo not drawn)
target: A549 NSCLC
TGI: > 100 µM

====

Reported TGI is given for each of the following compounds.
Test system: TK-10 renal
Assay: NCI tumour cell line growth inhibition, 48 h
endpoint label: TGI

compound: O=c1cc(CO)oc(C(O)c2ccccc2)c1O (stereo not drawn)
endpoint label: TGI
observed result: > 100 µM

compound: COc1cc2c(OC)cc1CSCc1sc(C)c(c1Br)CSC2
endpoint label: TGI
observed result: > 100 µM

compound: CC(C)N(C(=O)C12C3C4C1(I)C1C2C3(I)C41C(=O)N(C(C)C)C(C)C)C(C)C (stereo not drawn)
endpoint label: TGI
observed result: > 100 µM

====

Test system: MOLT-4 leukemia
Test: NCI tumour cell line growth inhibition, 48 h
# reported TGI; entries follow

compound: O=C(CCc1cc(O)ccc1O)OCCc1ccccc1
TGI: > 21 µM
//
compound: CC(=O)O[C@H]1CCC2[C@@H]3CCC4Nc5oncc5C[C@]4(C)C3CC[C@@]21C (some centres not stated)
TGI: > 10 µM
//
compound: CC1=CCC(C)=Nc2nc3ccccc3n21
TGI: > 100 µM
//
compound: O=C1NC(=O)C(c2cccc([N+](=O)[O-])c2)=C1Nc1cc(Cl)c(O)c(Cl)c1
TGI: > 25 µM
//
compound: Cn1c(=O)oc2cc(C(O)CN3CCN(Cc4ccccn4)CC3)c(Cl)cc21 (configuration not stated)
TGI: > 100 µM
//
compound: Cc1cc(C)c(/C=C2\C(=O)Nc3ccc(NC(=O)CCCCCCC(=O)NO)cc32)[nH]1
TGI: 35.3 µM
//
compound: CC1C[C@]2(C)C(=NCCN)Nc3ccccc3[C@@H]2N(C)c2ccccc21 (some centres not stated)
TGI: > 100 µM

====

Below, each entry is listed with its recorded TGI.
Tested on: RPMI-8226 leukemia
Assay: NCI tumour cell line growth inhibition, 48 h

compound: Cc1c(C)n(-c2ccccc2)c2nc(S(C)(=O)=O)nc(S(C)(=O)=O)c12
TGI: 4.94 µM
//
compound: CC(=O)Oc1ccc2c(c1)c1c(=O)oc(C)nc1n2Cc1ccccc1
TGI: > 100 µM
//
compound: O=P1(c2ccccc2)CCCCC1
TGI: > 100 µM
//
compound: CCCN1CN(C(C(=O)N[C@@H]2C(=O)N3C2SC(C)(C)C3C(=O)O)c2ccc(O)cc2)CSC1=S (some centres undefined)
TGI: > 100 µM
//
compound: S=c1[nH]c(=S)c2nnn(-c3ccccc3)c2[nH]1
TGI: > 100 µM
//
compound: CN(C)CC1CCC/C(=C\c2ccc(Cl)cc2)C1=O (centres undefined)
TGI: > 100 µM
//
compound: O=[N+]([O-])/C(C(Cl)=C(Cl)Cl)=C(/Nc1ccccc1)SCc1ccccc1
TGI: 37.7 µM
//
compound: c1ccc([P+](CC[P+](c2ccccc2)(c2ccccc2)c2ccccc2)(c2ccccc2)c2ccccc2)cc1
TGI: 7.79 µM
//
compound: Cc1cc(NS(=O)(=O)c2ccc(Nc3c4ccccc4nc4c(C(=O)N5CCN(CCO)CC5)ccc(Cl)c34)cc2)no1
TGI: > 100 µM
